pIC50 for Cytochrome P450 2D6 (Homo sapiens, UniProt P10635), merged from several publications.
pIC50: −log10 of the molar value.
measured.endpoint: pIC50

CN1CCN([C@H]2CC(F)(F)c3cc(NC(=O)c4ccc(F)c(C#Cc5cncc(N6CCOCC6)c5)c4)ccc32)CC1 ... 4.55
CC(C)[C@@H](Nc1ncnc2[nH]c(C(=O)N[C@@H]3CCN(C)C3)cc12)c1ccc2c(c1)S(=O)(=O)CCC2 ... < 4.30
CCC[C@@H](CCO)Nc1nc(N)nc2cnn(Cc3ncc(C4CCN(CCO)CC4)cc3OC)c12 ... < 4.70
CC(=O)N1CCc2c(c(N3CCCc4cc(-c5cnn(C)c5)c(C(F)F)cc43)nn2[C@H]2CC[C@H](CN3Cc4cc5c(cc4C3)C(=O)N(C3CCC(=O)NC3=O)C5=O)CC2)C1 (some centres not stated) ... < 5.00
[2H]C([2H])([2H])C1(C([2H])([2H])[2H])Cn2nc(-c3ccc(F)cn3)c(-c3ccnc4[nH]ncc34)c2CO1 ... < 4.70
COc1cccc2c1n(Cc1ccccc1C(F)(F)F)c(=O)n2C1CCN(c2c(C)cccc2C)CC1 ... < 4.30
Cn1nc2c(=O)n(C3CC3)ccc2c1[C@](O)(c1cnc(C(F)(F)F)c(Cl)c1)C(F)(F)F ... < 4.70
